Every entry's value here was drawn from paper PMC9405553.

# pKd values compiled below
- targetSystem: T1, ngMutL (Neisseria gonorrhoeae (FA 1090 in Fig. …, UniProt Q5F8M6 1-658))
- T1 sequence: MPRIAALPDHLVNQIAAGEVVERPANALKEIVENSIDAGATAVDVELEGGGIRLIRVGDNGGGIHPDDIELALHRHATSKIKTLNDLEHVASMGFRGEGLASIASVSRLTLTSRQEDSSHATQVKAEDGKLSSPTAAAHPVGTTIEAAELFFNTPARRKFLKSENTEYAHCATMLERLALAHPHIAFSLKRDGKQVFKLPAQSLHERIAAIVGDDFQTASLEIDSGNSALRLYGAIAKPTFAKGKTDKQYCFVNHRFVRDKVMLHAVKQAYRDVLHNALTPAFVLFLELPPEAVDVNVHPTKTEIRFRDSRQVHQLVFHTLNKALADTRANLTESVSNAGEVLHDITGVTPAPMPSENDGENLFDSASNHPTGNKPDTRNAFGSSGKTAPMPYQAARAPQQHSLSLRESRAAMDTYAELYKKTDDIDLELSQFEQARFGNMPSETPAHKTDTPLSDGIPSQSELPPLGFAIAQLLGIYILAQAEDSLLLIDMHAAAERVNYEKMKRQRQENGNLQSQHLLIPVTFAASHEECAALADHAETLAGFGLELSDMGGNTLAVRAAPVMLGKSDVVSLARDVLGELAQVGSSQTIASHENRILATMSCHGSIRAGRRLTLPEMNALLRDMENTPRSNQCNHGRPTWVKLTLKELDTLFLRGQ
- methodSummary: EMSA; ecMutS: 20 mM HEPES-KOH pH 7.9, 5 mM MgCl2, 120 mM KCl, 0.5 mg/mL BSA, 1 mM ADP, 37 C 15 min, 5 nM DNA; ecMutL/ngMutL: 20 mM HEPES pH 8.0, 100 mM KCl, 0.5 mg/mL BSA, 1 mM DTT, on ice 10 min, 20 nM DNA; gels in TAE at 4 C
- studyConditions: protein: recombinant; tags: N-terminal His6; chain copies: 2; label: 3'-TAMRA; three stacked parallel intramolecular G4s
Reminder that pKd is minus the log10 of a molar concentration.

Before answering, review these 3 worked examples.
binder: G242,243A-3' (structured_DNA) DNA: GCCGCGGAAAGGAAGGGGAGGGGCTGGGAGGGCCCGGAGGGGGCTGGGCCGGAAACCCGGGAGGGGTCGGGACGGGGCGGGGTCCGCGCGGAGGAG
pKd: 7.29
--
binder: G228A-3' (structured_DNA) DNA: GCCGCGGAAAGGAAGGGGAGGGGCTGGGAGGGCCCGGAAGGGGCTGGGCCGGGGACCCGGGAGGGGTCGGGACGGGGCGGGGTCCGCGCGGAGGAG
pKd: 7.36
--
binder: G250A-3' (structured_DNA) DNA: GCCGCGGAAAGGAAGGGGAGGGGCTGGGAGGGCCCGGAGGGGGCTGGGCCGGGGACCCGGAAGGGGTCGGGACGGGGCGGGGTCCGCGCGGAGGAG
pKd: 7.38

May I ask what pKd has been recorded for WT-3' (structured_DNA) DNA: GCCGCGGAAAGGAAGGGGAGGGGCTGGGAGGGCCCGGAGGGGGCTGGGCCGGGGACCCGGGAGGGGTCGGGACGGGGCGGGGTCCGCGCGGAGGAG ?
7.31
